- target.entity: T1, human TL1A extracellular domain with N-terminal HIS and FLAG tag (human, UniProt O95150 72-251)
- T1 construct: the whole entry is named
- T1 sequence: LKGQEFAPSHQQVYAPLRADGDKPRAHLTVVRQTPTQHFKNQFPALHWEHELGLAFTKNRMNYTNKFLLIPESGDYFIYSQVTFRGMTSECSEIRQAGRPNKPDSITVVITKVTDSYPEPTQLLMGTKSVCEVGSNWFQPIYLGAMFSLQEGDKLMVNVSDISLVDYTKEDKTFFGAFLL
- protocol.text: SPR Run 4, purified Ab captured on Protein A, TL1A 5 ug/mL, timepoint 220
Measured TL1A Binding Level (Late) accompanies every entry in the list below.
Give the value, in units of RU, as a plain number.

* 320-365 (antibody, human IgG1, name in Kabat numbering, V domains shown, human IgG1, lambda) VH: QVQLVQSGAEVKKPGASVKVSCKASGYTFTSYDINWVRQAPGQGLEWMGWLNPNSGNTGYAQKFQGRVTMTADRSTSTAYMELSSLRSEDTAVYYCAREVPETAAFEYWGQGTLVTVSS VL: QSVLTQPPSVSGAPGQRVTISCTSSSSDIGAGLGVHWYQQLPGTAPKLLIEGYYNRPSGVPDRFSGSKSGTSASLTITGLLPEDEGDYYCQSYDGTLQALFGGGTKLTVLG | 128
* 320-368 (antibody, human IgG1, name in Kabat numbering, V domains shown, human IgG1, lambda) VH: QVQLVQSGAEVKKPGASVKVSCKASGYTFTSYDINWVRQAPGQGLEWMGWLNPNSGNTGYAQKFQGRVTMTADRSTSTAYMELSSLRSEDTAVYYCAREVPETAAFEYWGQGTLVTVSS VL: QSVLTQPPSVSGAPGQRVTISCTSSSSDIGAGLGVHWYQQLPGTAPKLLIEGYYNRPSGVPDRFSGSKSGTSASLTITGLLPEDEGDYYCQSYDGTLKALFGGGTKLTVLG | 26
* 320-326 (antibody, human IgG1, name in Kabat numbering, V domains shown, human IgG1, lambda) VH: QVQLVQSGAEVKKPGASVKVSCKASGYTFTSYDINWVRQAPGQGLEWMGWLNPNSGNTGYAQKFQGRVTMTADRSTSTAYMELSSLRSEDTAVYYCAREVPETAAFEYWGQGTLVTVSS VL: QSVLTQPPSVSGAPGQRVTISCTSSSSDIGAGLGVHWYQQLPGTAPKLLIEGYYNRPSGVPDRFSGSKSGTSASLTITGLLPEDEGDYYCQSSDGTLSALFGGGTKLTVLG | 120
* 320-341 (antibody, human IgG1, name in Kabat numbering, V domains shown, human IgG1, lambda) VH: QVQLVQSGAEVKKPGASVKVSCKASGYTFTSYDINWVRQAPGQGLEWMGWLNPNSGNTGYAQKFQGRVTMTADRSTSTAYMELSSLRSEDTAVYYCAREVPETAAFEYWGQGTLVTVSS VL: QSVLTQPPSVSGAPGQRVTISCTSSSSDIGAGLGVHWYQQLPGTAPKLLIEGYYNRPSGVPDRFSGSKSGTSASLTITGLLPEDEGDYYCQSYDSTLSALFGGGTKLTVLG | 135

Documented TL1A Binding Level (Late) of 320-319 (antibody, human IgG1, name in Kabat numbering, V domains shown, human IgG1, lambda) VH: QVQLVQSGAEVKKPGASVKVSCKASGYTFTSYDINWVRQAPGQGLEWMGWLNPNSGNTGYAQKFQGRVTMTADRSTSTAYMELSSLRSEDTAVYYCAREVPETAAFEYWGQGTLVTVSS VL: QSVLTQPPSVSGAPGQRVTISCTSSSSDIGAGLGVHWYQQLPGTAPKLLIEGYYNRPSGVPDRFSGSKSGTSASLTITGLLPEDEGDYYCQQYDGTLSALFGGGTKLTVLG : 14
